B1: HDV Ribozyme (parent)
chain: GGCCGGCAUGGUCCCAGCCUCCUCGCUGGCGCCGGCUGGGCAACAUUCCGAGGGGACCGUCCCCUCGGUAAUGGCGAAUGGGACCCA

- Variants of: B1
- measurementDescription: self-cleavage, relative activity (ratio to wild type); higher = more cleavage; co-transcriptional
measuredAttribute: self-cleavage
Give the figure by itself; no unit, no explanation.

G29A G40C; 0.0656

stdin: Quick one: self-cleavage for G34A G76C ?
stdout: 0.217

stdin: Quick one: self-cleavage for G29C C48G ?
stdout: 0.095

stdin: Recorded self-cleavage of G73U U79A , please.
stdout: 0.131

stdin: Look up self-cleavage: C21G G80U
stdout: 0.0963

stdin: Given the entry C22U C61G , report its measured self-cleavage.
stdout: 0.545

stdin: Any idea what self-cleavage was measured for C19G C44A ?
stdout: 0

stdin: Using the record for G1U U72G , report its self-cleavage.
stdout: 0.269

stdin: Look up self-cleavage: U9G U69A
stdout: 0.831

stdin: Name the recorded self-cleavage for G1A G40C .
stdout: 0.0437

stdin: Consider the variant shown here: G10A A71C What is its recorded self-cleavage?
stdout: 0.456

stdin: Give its self-cleavage value. Item: G17C G35U
stdout: 0.0773

stdin: GET /values?readout=self-cleavage&item= G10A U72A
stdout: 0.485

stdin: What measured self-cleavage goes with G5A A51U ?
stdout: 0.104

stdin: Item G11U G40U has what recorded self-cleavage?
stdout: 0.18

stdin: What value of self-cleavage has been recorded for this entry: G10C U47C
stdout: 0.332

stdin: For the variant shown here, G59U G68A , give the reported self-cleavage.
stdout: 0.88

stdin: // returns reported self-cleavage for input C49G G81A
stdout: 0.361

stdin: # input variant: G10C C63U ; wanted: its self-cleavage
stdout: 1.03

stdin: Need self-cleavage of C41A U79A , thanks.
stdout: 0.656

stdin: Look at this variant and give its reported self-cleavage. G28A C48U
stdout: 0.0997

stdin: Given U65G C84A , state its recorded self-cleavage.
stdout: 1.04
